EXPERIMENTAL TARGET: c-Met Fc fusion (UniProt P08581 P08581:25-932)
Sequence (P08581 25-932, one chain of several): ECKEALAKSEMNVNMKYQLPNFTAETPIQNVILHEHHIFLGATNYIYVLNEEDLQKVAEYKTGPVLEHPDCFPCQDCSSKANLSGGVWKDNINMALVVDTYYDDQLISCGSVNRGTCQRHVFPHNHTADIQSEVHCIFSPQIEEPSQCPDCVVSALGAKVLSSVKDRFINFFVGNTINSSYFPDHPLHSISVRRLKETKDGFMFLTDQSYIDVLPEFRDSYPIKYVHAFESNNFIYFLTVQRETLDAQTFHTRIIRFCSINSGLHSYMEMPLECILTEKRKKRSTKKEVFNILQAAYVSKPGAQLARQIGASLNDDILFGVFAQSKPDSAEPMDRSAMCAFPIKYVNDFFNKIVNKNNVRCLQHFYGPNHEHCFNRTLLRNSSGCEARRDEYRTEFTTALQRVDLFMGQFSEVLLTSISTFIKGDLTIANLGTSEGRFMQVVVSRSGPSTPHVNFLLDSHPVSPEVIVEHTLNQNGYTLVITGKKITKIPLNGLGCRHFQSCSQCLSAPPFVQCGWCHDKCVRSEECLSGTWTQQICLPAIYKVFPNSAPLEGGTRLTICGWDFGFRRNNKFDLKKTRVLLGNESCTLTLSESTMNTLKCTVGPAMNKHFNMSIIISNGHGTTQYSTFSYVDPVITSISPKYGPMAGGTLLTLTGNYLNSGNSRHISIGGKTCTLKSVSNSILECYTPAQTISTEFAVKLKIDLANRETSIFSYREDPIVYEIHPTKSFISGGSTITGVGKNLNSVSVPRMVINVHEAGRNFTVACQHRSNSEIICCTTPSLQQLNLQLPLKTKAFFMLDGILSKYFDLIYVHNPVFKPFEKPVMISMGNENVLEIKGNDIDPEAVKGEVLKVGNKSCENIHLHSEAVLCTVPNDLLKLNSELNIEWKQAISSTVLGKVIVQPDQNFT
EXPERIMENTAL DETAILS: filter; dot blot
CONDITION INFO: tags: Fc-His fusion; chain copies: 2
Measured Kd by item

{"BINDER": "bsA20 (ssDNA) DNA: CCACTGCGGGGGTCTATACGTGAGGAAGAAGTGGGCAGGTCGGAGGGAAAAGTTATCAGGCTGGATGGTAGCTCGGTCGGGGTGGGTGGGTTGGCAAGTCT", "Kd (nM)": 5}
{"BINDER": "bsA31 (ssDNA) DNA: CCACTGCGGGGGTCTATACGTGAGGAAGAAGTGGGCAGGTCAAAAAAAAAAAAAAAGAGTGCGTAATGGTACGATTTGGGAAGTGGCTTGGGGTGGGATTAGTTTTGGAGTACTCGCTCC", "Kd (nM)": 92}
{"BINDER": "bsA13 (ssDNA) DNA: GAGTGCGTAATGGTACGATTTGGGAAGTGGCTTGGGGTGGGATTAGTTTTGGAGTACTCGCTCCGGAGGGAAAAGTTATCAGGCCACTGCGGGGGTCTATACGTGAGGAAGAAGTGG", "Kd (nM)": 18}
{"BINDER": "bsA12 (ssDNA) DNA: CCACTGCGGGGGTCTATACGTGAGGAAGAAGTGGGCAGGTCGATTAGTTTTGGAGTACTCGCTCCGGAGGGAAAAGTTATCAGGCGAGTGCGTAATGGTACGATTTGGGAAGTGGCTTGGGGTGGGATTAGTTTTGGAGTACTC", "Kd (nM)": 18}
